# Tested on: MARK2
# measurement setup: concentration: 1 μM, replicates: in singlicate; n = 1;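 note: KINOMEscan kinase panel screen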
property label: %Inh (%)
Answers are plain numbers, in %.

INSERT INTO measurements (molecule, reading) VALUES
  ('COc1ccccc1CNC(=O)c1cc(C(=O)c2ccccc2C)c[nH]1 [GSK364507]', 0),
  ('Cc1ccc(-c2cc(-c3c[nH]nc3-c3ccccn3)ccn2)cc1 [GW684088]', 14),
  ('COc1ccc(Nc2nccc(NCCNC(=O)Nc3ccccc3F)n2)cc1 [GSK1379901]', 0),
  ('Cc1cccc(-c2cc(Nc3ccncc3)c3ccccc3n2)n1 [GSK223675]', 0),
  ('COc1ccc2nc(-c3cccc(C)n3)nc(Nc3ccncc3)c2c1 [GSK204919]', 0);

Would you mind listing %Inh for each of the following molecules?
1. Cc1ccc(NC(=O)Nc2cc(C(C)(C)C)nn2-c2ccccc2)cc1 [GSK1014915]
2. O=C1NC(=O)C(N2CCc3ccccc32)=C1c1ccccc1Cl [SB-373598]

[reply]
1. 0
2. 10

Kindly give each listed record's %Inh.
1. NC(=O)c1nnc2ccccc2c1N
2. Cc1cc(NCC(c2ccccc2)c2ccccc2)nc(NCc2ccc(C(F)(F)F)cc2)n1 [GW497681]
3. Cl.O=C(Nc1cccc(-c2nn3ncccc3c2-c2ccnc(Nc3cccnc3)n2)c1)c1c(F)cccc1F [GSK312879]
4. Fc1cc(Cl)ccc1Nc1ccnc2cc(I)ccc12 [GW551191]

[reply]
1: 0; 2: 0; 3: 0; 4: 0

----------
# Test system: RSK1(Kin.Dom.2-C-terminal)
# Construct: gene RPS6KA1
# measurement setup: concentration: 1 μM, replicates: in singlicate; n = 1
property label: %Inh
Entry format: amount then unit.

Consider the following illustrative entries.
INSERT INTO measurements (given_smiles, property_label, reading) VALUES
  ('CC(=O)Nc1nc2cnc(Nc3cc(NC(=O)c4cccc(CCC#N)c4)ccc3C)nc2s1', '%Inh', '0%'),
  ('Cc1c(O)cccc1Nc1ccnc2ccc(C(F)(F)F)cc12.Cl', '%Inh', '2%'),
  ('Cl.c1ccc(-c2n[nH]cc2-c2ccnc(-c3ccc(CN4CCOCC4)cc3)c2)nc1', '%Inh', '17%');

Each molecule below has a recorded value; state its %Inh.
1. O=c1cc(N2CCOCC2)nc2n(Cc3cccc(Cl)c3Cl)ccn12
2. Cc1ccc(-c2cc(-c3c[nH]nc3-c3ccccn3)ccn2)cc1

[reply]
["0%", "24%"]

----------
Please go through the items and note down their %Inh.
# System: PAK1
# measurement setup: concentration: 1 μM, replicates: in singlicate; n = 1
Numbers only, in %.

INSERT INTO results (compound, test_system, reading) VALUES
  ('COc1cc2nccc(Nc3ccc(NC(=O)c4ccc(C)cc4)c(O)c3)c2cc1OC.Cl', 'PAK1', 0),
  ('CCn1c(-c2ccccn2)nc2cnccc21', 'PAK1', 22),
  ('O=C(Nc1n[nH]c2cc(-c3cccc(F)c3F)ccc12)C1CC1', 'PAK1', 3),
  ('O=C1NC(=O)C(N2CCc3ccccc32)=C1c1ccccc1Cl', 'PAK1', 10),
  ('O=c1cc(N2CCOCC2)nc2n(Cc3cccc(Cl)c3Cl)ccn12', 'PAK1', 22);

Answer for every listed entry: what is its %Inh? The entries follow.
1. Cn1ccc2ncnc(Oc3ccc(Nc4nc5ccccc5[nH]4)cc3)c21
2. Cl.O=C(Nc1cccc(-c2nn3ncccc3c2-c2ccnc(Nc3cccnc3)n2)c1)c1c(F)cccc1F
3. CS(=O)(=O)c1ccc(-c2nc3n(c2-c2ccncc2)CCC3)cc1

[reply]
[14, 15, 19]

Batch request: %Inh per item, same order as input.
1. COc1cccc(-c2cc(-c3c[nH]nc3-c3ccccn3)ccn2)c1
2. Cc1cc(-c2ccc3c(c2)CC[C@@H](N[C@@H](C)c2ccccc2)C3)cnc1N.Cl
3. COc1cc2ncn(-c3cc(OCC4CCCO4)c(C(N)=O)s3)c2cc1OC (stereo not shown)
4. Cc1cccc(-c2nc(Nc3ccc4[nH]ncc4c3)c3ccccc3n2)n1
5. O=S(=O)(c1ccc(-c2ccnc3[nH]ccc23)cc1)N1CCCC1
6. Cc1cccc(-c2nc(C)cc(Nc3ccncc3)n2)n1

[reply]
[0, 0, 0, 0, 0, 44]

Your task in this section: give %Inh for each listed record.
1. COc1cc(Nc2nccc(N3CCC(NC(=O)Nc4cc(C)ccc4C)C3)n2)cc(OC)c1OC (stereo not shown)
2. CN1C(=O)C(Nc2ccc(Cl)c(C(=O)O)c2)=C(c2ccc(Cl)cc2)C1=O

[reply]
[11, 0]

----------
# Test system: NEK3
# measurement setup: concentration: 1 μM, replicates: in singlicate; n = 1
property label: %Inh

Below are worked cases with known answers.
INSERT INTO results (molecule, reading) VALUES
  ('CC(=O)Nc1nc2cnc(Nc3cc(NC(=O)c4cccc(CCC#N)c4)ccc3C)nc2s1', '7%'),
  ('O=c1cc(N2CCOCC2)nc2n(Cc3cccc(Cl)c3Cl)ccn12 [GSK2286295]', '1%'),
  ('CC1=C(C(=O)Nc2cc3cn[nH]c3cc2F)C(c2ccc(C(F)(F)F)cc2)CC(=O)N1 (centres unmarked) [GSK429286]', '6%'),
  ('Clc1cc(Cl)cc(Nc2ccnc(Nc3cc(Cl)cc(Cl)c3)n2)c1 [GSK175726]', '16%'),
  ('COC(=O)c1c(-c2ccccc2)c2cc(C(=O)O)ccc2c(=O)n1Cc1ccccc1', '31%'),
  ('Cc1ccc(C(=O)Nc2ccc(Nc3ccnc4cc(-c5ccccn5)ccc34)cc2O)cc1.Cl [GW440146]', '0%'),
  ('COc1cccc(NC(=O)NC2CCN(c3ccnc(Nc4ccc(F)cc4)n3)C2)c1 (centres unmarked) [GSK1379721]', '6%');

[ask] Value lookup for %Inh; key = Cl.c1ccc(-c2n[nH]cc2-c2ccnc(-c3ccc(CN4CCOCC4)cc3)c2)nc1 [GW776245]
[reply] 14%

----------
Assignment: determine reported %Inh for the given compounds.
# Test system: PAK6
# measurement setup: concentration: 1 μM, replicates: in singlicate; n = 1
Numbers only, in %.

INSERT INTO measurements (compound, test_system, property_label, reading) VALUES
  ('COc1ccc(CNC(=O)NC2CCN(c3ccnc(Nc4cc(OC)c(OC)c(OC)c4)n3)C2)cc1 (stereo not drawn)', 'PAK6', '%Inh', 0),
  ('Cc1c(O)cccc1Nc1ccnc2ccc(C(F)(F)F)cc12.Cl', 'PAK6', '%Inh', 0),
  ('Cc1cc(N2Cc3ccccc3C2)nc(Nc2ccc(S(=O)(=O)N3CCOCC3)cc2)n1.Cl', 'PAK6', '%Inh', 0),
  ('COc1cccc(-c2cc(-c3c[nH]nc3-c3ccccn3)ccn2)c1', 'PAK6', '%Inh', 3),
  ('CS(=O)(=O)c1ccc(-c2nc3n(c2-c2ccncc2)CCC3)cc1', 'PAK6', '%Inh', 99.2),
  ('Fc1cccc(COc2nnc(-c3ccc4c(c3)CCO4)o2)c1', 'PAK6', '%Inh', 38);

// for each compound in input: emit %Inh
1. Cc1cccc(-c2nc(-c3ccc(S(C)(=O)=O)cc3)sc2-c2ccnc(NCCc3ccccc3)c2)c1
2. O=c1cc(N2CCOCC2)nc2n(Cc3cccc(Cl)c3Cl)ccn12
3. COc1cc(Nc2nccc(N3CCC(NC(=O)Nc4cc(C)ccc4C)C3)n2)cc(OC)c1OC (stereo not drawn)
4. Cc1cc(NCC(c2ccccc2)c2ccccc2)nc(NCc2ccc(C(F)(F)F)cc2)n1
5. Cc1cccc(-c2nc(Nc3ccc4[nH]ncc4c3)c3ccccc3n2)n1
6. Cc1cccc(-c2nc(Nc3cccc(C(N)=O)c3)c3ccccc3n2)n1

[reply]
[5, 0, 0, 0, 4, 0]

Hi! Can you tell me %Inh for each of these compounds?
1. COc1cc2nccc(Nc3ccc(NC(=O)c4ccc(C)cc4)c(O)c3)c2cc1OC.Cl
2. COC(=O)c1c(-c2ccccc2)c2cc(OC)ccc2c(=O)n1Cc1ccccc1
3. COc1cc2ncnc(Nc3ccc4nc(-c5ccccc5)[nH]c4c3)c2cc1OC.Cl
4. O=C(Nc1n[nH]c2cc(-c3cccc(F)c3F)ccc12)C1CC1
5. Fc1cc(Cl)ccc1Nc1ccnc2cc(I)ccc12
6. CN1C(=O)C(Nc2ccc(Cl)c(C(=O)O)c2)=C(c2ccc(Cl)cc2)C1=O

[reply]
1. 0
2. 3
3. 11
4. 0
5. 0
6. 0

----------
Give %Inh for every item shown.
# Tested on: ZAP70
# measurement setup: concentration: 1 μM, replicates: in singlicate; n = 1
Answers are plain numbers, in %.

# example entries with known answers
INSERT INTO assay_data (molecule, test_system, reading) VALUES
  ('CCCc1ccc(S(=O)(=O)NC2CCN(c3ccnc(Nc4ccc(F)cc4)n3)C2)cc1 (centres unmarked)', 'ZAP70', 0),
  ('CC(C)(C)c1ccc(C(=O)Nc2cn3cc(Cl)ccc3n2)cc1', 'ZAP70', 4),
  ('COc1ccc(Nc2nccc(NCCNC(=O)Nc3ccccc3F)n2)cc1', 'ZAP70', 5),
  ('Cn1ccc2ncnc(Oc3ccc(Nc4nc5ccccc5[nH]4)cc3)c21', 'ZAP70', 0),
  ('Cc1c(O)cccc1Nc1ccnc2ccc(C(F)(F)F)cc12.Cl', 'ZAP70', 0);

Dear colleague, could you please provide %Inh for the molecules listed below?
1. CC(=O)Nc1nc2cnc(Nc3cc(NC(=O)c4cccc(CCC#N)c4)ccc3C)nc2s1
2. CCn1c(-c2cccnc2O)nc2cnccc21
3. COC(=O)c1c(-c2ccccc2)c2cc(OC)ccc2c(=O)n1Cc1ccccc1
4. Fc1cc(Cl)ccc1Nc1ccnc2cc(I)ccc12
5. CS(=O)(=O)c1ccc(-c2c(-c3ncn[nH]3)sc(N3CCOCC3)c2C#N)cc1
6. Fc1cc(Cl)ccc1Nc1ccnc2cc(-c3ccc(CN4CCCCC4)o3)ccc12
7. Cc1cccc(-c2nc(Nc3ccncc3)c3ccccc3n2)n1

[reply]
[0, 0, 0, 0, 0, 0, 0]

Would you be so kind as to report %Inh for each listed record?
1. O=C(Nc1ccccc1)Nc1cccc(Oc2ccc3nccn3n2)c1
2. Cl.Oc1ccc(-c2nc(-c3ccccc3)[nH]c2-c2ccncc2)cc1
3. COc1cc(Nc2nccc(N3CCC(NC(=O)Nc4cc(C)ccc4C)C3)n2)cc(OC)c1OC (centres unmarked)
4. O=C(Nc1n[nH]c2cc(-c3cccc(F)c3F)ccc12)C1CC1
5. O=C(O)COc1ncnc2cc(-c3ccc4[nH]ncc4c3)sc12
6. Cc1cccc(-c2cc(Nc3ccncc3)c3ccccc3n2)n1
7. Cn1ccc2ncnc(Oc3cccc(C(=O)Nc4ccccc4)c3)c21
8. Cc1cccc(-c2nc(-c3ccc(S(C)(=O)=O)cc3)sc2-c2ccnc(NCCc3ccccc3)c2)c1

[reply]
1: 0; 2: 0; 3: 0; 4: 60; 5: 14; 6: 0; 7: 0; 8: 9

For every item below, please supply its %Inh.
1. CC(C)(C)c1ccc(C(=O)Nc2cn3cc(-c4cccnc4)ccc3n2)cc1
2. O=S(=O)(c1ccc(-c2ccnc3[nH]ccc23)cc1)N1CCCC1
3. COc1cccc(NC(=O)NC2CCN(c3ccnc(Nc4ccc(F)cc4)n3)C2)c1 (centres unmarked)
4. Cc1csc(-c2nc(Nc3ccncc3)c3ccccc3n2)n1
5. O=C1NC(=O)C(N2CCc3ccccc32)=C1c1ccccc1Cl
6. NC(=O)c1nnc2ccccc2c1N
7. COc1cc2ncn(-c3cc(OCC4CCCO4)c(C(N)=O)s3)c2cc1OC (centres unmarked)
8. O=c1cc(N2CCOCC2)nc2n(Cc3cccc(Cl)c3Cl)ccn12

[reply]
[0, 0, 0, 18, 0, 0, 0, 0]

Parameter requested: %Inh. Apply to each item below.
1. COc1ccc(C2=C(Nc3cccc(C(=O)O)c3)C(=O)NC2=O)cc1
2. Fc1cccc(COc2nnc(-c3ccc4c(c3)CCO4)o2)c1
3. COc1ccccc1CNC(=O)c1cc(C(=O)c2ccccc2C)c[nH]1
4. Cc1nnc(-c2ccc3occ(-c4ccc(S(C)=O)cc4)c3c2)[nH]1 (centres unmarked)
5. Cc1cccc(-c2nc(Nc3cccc(C(N)=O)c3)c3ccccc3n2)n1
6. O=C(Nc1ccc2c(c1)OCO2)NC1CCN(c2ccnc(Nc3ccc(F)cc3)n2)C1 (centres unmarked)

[reply]
1: 0; 2: 0; 3: 13; 4: 0; 5: 0; 6: 0

Entry source: paper PMC5540273
